- experimental target: α1β2 GABAA receptor (Rattus norvegicus, UniProt P62813+P63138)
- Sequence (P62813 28-455): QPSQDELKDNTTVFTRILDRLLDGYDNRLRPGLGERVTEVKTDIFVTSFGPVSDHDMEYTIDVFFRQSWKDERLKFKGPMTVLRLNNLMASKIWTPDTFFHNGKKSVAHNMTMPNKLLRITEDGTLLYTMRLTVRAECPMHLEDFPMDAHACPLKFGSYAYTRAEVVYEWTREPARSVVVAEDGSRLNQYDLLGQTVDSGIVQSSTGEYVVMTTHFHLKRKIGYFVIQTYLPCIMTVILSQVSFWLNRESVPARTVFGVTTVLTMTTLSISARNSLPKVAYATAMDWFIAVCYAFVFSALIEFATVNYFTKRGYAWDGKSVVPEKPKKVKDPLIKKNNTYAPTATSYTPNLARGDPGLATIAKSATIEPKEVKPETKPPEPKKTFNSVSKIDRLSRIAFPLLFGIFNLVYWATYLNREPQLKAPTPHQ
- Sequence (P63138 25-474 limits assumed): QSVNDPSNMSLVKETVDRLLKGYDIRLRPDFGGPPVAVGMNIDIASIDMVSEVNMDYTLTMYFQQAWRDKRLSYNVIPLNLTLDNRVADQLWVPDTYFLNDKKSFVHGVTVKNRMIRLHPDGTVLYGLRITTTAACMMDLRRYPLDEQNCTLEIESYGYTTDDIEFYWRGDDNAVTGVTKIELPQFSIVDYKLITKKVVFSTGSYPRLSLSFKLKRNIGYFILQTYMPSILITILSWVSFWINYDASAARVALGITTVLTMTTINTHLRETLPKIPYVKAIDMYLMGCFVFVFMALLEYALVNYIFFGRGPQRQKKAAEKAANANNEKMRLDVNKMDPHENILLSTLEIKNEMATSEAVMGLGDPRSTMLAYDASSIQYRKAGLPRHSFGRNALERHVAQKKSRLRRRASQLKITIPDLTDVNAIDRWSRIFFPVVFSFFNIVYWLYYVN
- Format: cell-based, rat α1, rat β2

{"smiles str": "CC1(C)C=Cc2c(ccc3c2OC[C@@H](c2ccc(O)cc2O)C3)O1", "unit symbol": "µM", "EC50": 9.63}

###

- experimental target: α1β1γ2 GABAA receptors (Rattus norvegicus, UniProt P15431+P62813)
- Sequence (P15431 26-474, one chain of several): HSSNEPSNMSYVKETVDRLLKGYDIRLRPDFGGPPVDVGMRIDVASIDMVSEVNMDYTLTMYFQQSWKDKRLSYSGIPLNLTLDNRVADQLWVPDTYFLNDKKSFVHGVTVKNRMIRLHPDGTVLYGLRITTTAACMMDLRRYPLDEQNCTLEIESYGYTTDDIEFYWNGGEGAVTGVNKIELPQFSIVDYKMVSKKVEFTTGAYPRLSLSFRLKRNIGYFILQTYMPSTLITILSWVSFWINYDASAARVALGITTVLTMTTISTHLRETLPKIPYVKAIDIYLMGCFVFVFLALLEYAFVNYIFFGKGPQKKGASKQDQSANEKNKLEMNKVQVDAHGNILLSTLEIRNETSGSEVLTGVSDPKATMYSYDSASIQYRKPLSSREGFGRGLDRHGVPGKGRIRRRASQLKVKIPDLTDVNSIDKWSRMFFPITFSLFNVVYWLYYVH
- Sequence (P22723 39-474 partner, one chain of several): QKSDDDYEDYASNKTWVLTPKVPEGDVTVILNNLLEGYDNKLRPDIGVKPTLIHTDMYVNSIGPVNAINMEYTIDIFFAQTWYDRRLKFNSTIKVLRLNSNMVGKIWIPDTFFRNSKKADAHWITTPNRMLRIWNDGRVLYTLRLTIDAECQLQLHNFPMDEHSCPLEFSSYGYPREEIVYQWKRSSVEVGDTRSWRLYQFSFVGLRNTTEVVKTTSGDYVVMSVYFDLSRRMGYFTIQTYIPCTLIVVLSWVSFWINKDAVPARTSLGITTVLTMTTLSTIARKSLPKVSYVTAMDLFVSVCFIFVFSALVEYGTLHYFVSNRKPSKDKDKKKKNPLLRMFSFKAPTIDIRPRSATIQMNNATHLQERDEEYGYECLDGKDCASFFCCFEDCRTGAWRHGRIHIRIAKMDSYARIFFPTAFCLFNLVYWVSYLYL

{"smiles str": "CC1(C)C=Cc2c(ccc3c2OC[C@@H](c2ccc(O)cc2O)C3)O1", "EC50, µM": 17.2}

The reported numbers originate from paper PMC5689168.
